- Tested on: T1R1/T1R3 umami receptor
- PROTOCOL DETAILS: In vitro screening of amino acids for ability to activate the T1R1/T1R3 receptor in the presence of 0.2 mM IMP
- Assay type: cell-based
- REPORTED CONDITIONS: FIG. 10
OBSERVED PROPERTY: activation of the T1R1/T1R3 umami receptor

- COMPOUND: "NC(=O)CC[C@H](N)C(=O)O [glutamine]"
  TARGET ENTITY: "T1R1/T1R3 umami receptor"
  TEST VALUE: "do not activate"
- COMPOUND: "C[C@@H](O)[C@H](N)C(=O)O [threonine]"
  TARGET ENTITY: "T1R1/T1R3 umami receptor"
  TEST VALUE: "do not activate"
- COMPOUND: "N[C@@H](CSSC[C@H](N)C(=O)O)C(=O)O [cystine]"
  TARGET ENTITY: "T1R1/T1R3 umami receptor"
  TEST VALUE: "do not activate"
- COMPOUND: "O=C(O)[C@@H]1C[C@@H](O)CN1 [hydroxyproline]"
  TARGET ENTITY: "T1R1/T1R3 umami receptor"
  TEST VALUE: "do not activate"
- COMPOUND: "O=C(O)[C@@H]1CCCN1 [proline]"
  TARGET ENTITY: "T1R1/T1R3 umami receptor"
  TEST VALUE: "do not activate"
- COMPOUND: "N=C(N)NCCC[C@H](N)C(=O)O [arginine]"
  TARGET ENTITY: "T1R1/T1R3 umami receptor"
  TEST VALUE: "do not activate"

Value source: patent US20150282506A1
